Experimental Target: IKZF1 ZNF2_ZNF3 Q1F degron-tagged CD19 CAR (Homo sapiens, UniProt Q13422, Q146F)
Construct: ZNF2_ZNF3 Q1F degron (GERPFFCNQCGASFTQKGNLLRHIKLHSGEKPFKCHLCNYACRRRDALTGHLRTHS); fused on or other part: anti-CD19 scFv, CD28 transmembrane domain, 4-1BB costimulatory domain, CD3 zeta signaling domain (the CAR that carries the degron), and Nluc
Sequence (Q13422 whole entry Q146F, the tested form may be a part): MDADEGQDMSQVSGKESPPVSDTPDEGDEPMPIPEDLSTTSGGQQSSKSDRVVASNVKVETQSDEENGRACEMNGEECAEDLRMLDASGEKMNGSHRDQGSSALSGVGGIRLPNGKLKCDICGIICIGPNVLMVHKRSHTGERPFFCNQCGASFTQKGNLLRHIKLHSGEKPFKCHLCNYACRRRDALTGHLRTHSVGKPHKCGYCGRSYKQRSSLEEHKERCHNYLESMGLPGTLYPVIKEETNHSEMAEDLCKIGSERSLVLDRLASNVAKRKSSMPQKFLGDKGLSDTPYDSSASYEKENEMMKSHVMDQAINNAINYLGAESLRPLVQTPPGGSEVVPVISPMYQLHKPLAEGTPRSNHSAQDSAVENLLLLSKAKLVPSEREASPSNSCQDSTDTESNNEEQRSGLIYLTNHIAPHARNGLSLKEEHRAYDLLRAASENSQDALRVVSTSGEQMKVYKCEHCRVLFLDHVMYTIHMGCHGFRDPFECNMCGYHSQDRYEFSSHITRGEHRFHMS
Assay Overview: Degradation of Q1F degron-tagged CD19 CAR in Jurkat cells (flow cytometry of CAR levels)
Format: cell-based
Condition Info: Ymax is the % protein degraded; Jurkat cells expressing Q1F degron-tagged CD19 CAR; 18 hours; read-out: Q1F Jurkat-YMax
Reported Dmax values follow for various compounds

Compound | Dmax
O=C1CCC(N2Cc3c(cc(F)c(C4(O)CCN(Cc5ncccc5Br)CC4)c3F)C2=O)C(=O)N1 (stereo not drawn) | 57.3%

Prompt: Look up Dmax for this compound: CC(C)CCN1CCC(c2c(F)cc3c(c2F)CN(C2CCC(=O)NC2=O)C3=O)CC1 (stereo not drawn)
Response: 82.5%

Prompt: Another compound to check: O=C1CCC(N2Cc3c(cc(F)c(CNCc4ccc(C(F)F)cc4)c3F)C2=O)C(=O)N1 (stereo not drawn)
Response: 60%

Prompt: Another compound to check: O=C1CCC(N2Cc3c(cc(F)c(C4(O)CCN(Cc5cc(C(F)(F)F)cc(C6CC6)n5)CC4)c3F)C2=O)C(=O)N1 (stereo not drawn)
Response: 69.2%

Prompt: Another compound to check: O=C1CCC(N2Cc3c(cc(F)c(CNC(=O)c4ccc5c(c4)CCC5)c3F)C2=O)C(=O)N1 (stereo not drawn)
Response: 63.2%

* * *

Experimental Target: IKZF1 ZNF2_ZNF3 Q1F degron-tagged CD19 CAR (Homo sapiens, UniProt Q13422, Q146F)
Construct: ZNF2_ZNF3 Q1F degron (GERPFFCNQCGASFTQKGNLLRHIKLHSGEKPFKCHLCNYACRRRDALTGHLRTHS); fused on or other part: anti-CD19 scFv, CD28 transmembrane domain, 4-1BB costimulatory domain, CD3 zeta signaling domain (the CAR that carries the degron), and Nluc
Assay Overview: Degradation of Q1F degron-tagged CD19 CAR in Jurkat cells (flow cytometry of CAR levels)
Format: cell-based
Condition Info: Jurkat cells expressing CD19 CAR tagged with IKZF1 ZNF2_ZNF3 Q1F; 18 hours at 37° C.; CAR levels normalized to untreated cells; read-out: Q1F Jurkat IC50
Measure: DC50
Give the number first and the unit second.

See these solved cases before continuing.
Molecule | Experimental Target | DC50
O=C1CCC(N2Cc3cc(C4CCN(Cc5ccc6ncsc6c5)CC4)c(F)cc3C2=O)C(=O)N1 (stereo not shown) | IKZF1 ZNF2_ZNF3 Q1F degron-tagged CD19 CAR (Homo sapiens, UniProt Q13422, Q146F) | 3.06 nM
O=C1CCC(N2Cc3c(cc(F)c(C4CCN(Cc5cccc(-n6cccn6)c5)CC4)c3F)C2=O)C(=O)N1 (stereo not shown) | IKZF1 ZNF2_ZNF3 Q1F degron-tagged CD19 CAR (Homo sapiens, UniProt Q13422, Q146F) | 0.108 nM
O=C1CCC(N2Cc3c(cc(F)c(C4CCN(CC5CCCCC5)CC4)c3F)C2=O)C(=O)N1 (stereo not shown) | IKZF1 ZNF2_ZNF3 Q1F degron-tagged CD19 CAR (Homo sapiens, UniProt Q13422, Q146F) | 0.563 nM

Prompt: Please state recorded DC50 (tested on IKZF1 ZNF2_ZNF3 Q1F degron-tagged CD19 CAR (Homo sapiens, UniProt Q13422, Q146F)) of O=C1CCC(N2Cc3c(cc(F)c(C4CCN(Cc5nc(C(F)(F)F)cs5)CC4)c3F)C2=O)C(=O)N1 (stereo not shown)
Response: 83.5 nM

Prompt: Another molecule to check: Cn1cncc1CN1CCC(c2c(F)cc3c(c2F)CN(C2CCC(=O)NC2=O)C3=O)CC1 (stereo not shown)
Response: 10.4 nM

Prompt: Another molecule to check: O=C1CCC(N2Cc3c(cc(F)c(C4CCN(Cc5cc(F)ccc5-n5cccn5)CC4)c3F)C2=O)C(=O)N1 (stereo not shown)
Response: 2.5 nM

Prompt: Another molecule to check: O=C1CCC(N2Cc3c(cc(F)c(C4(O)CCN(CC5CCCCC5)CC4)c3F)C2=O)C(=O)N1 (stereo not shown)
Response: 192 nM

Prompt: Another molecule to check: O=C1CCC(N2Cc3cc(C4(O)CCN(Cc5ccc6ncsc6c5)CC4)c(F)cc3C2=O)C(=O)N1 (stereo not shown)
Response: 144 nM

* * *

Reported DC50 values follow for various compounds
Experimental Target: Helios (Homo sapiens, UniProt Q9UKS7)
Construct: endogenous in cells; host or cells: Jurkat cells, CRISPR/Cas9 knock-in of HiBit at the IKZF2 locus
Sequence (Q9UKS7 whole entry): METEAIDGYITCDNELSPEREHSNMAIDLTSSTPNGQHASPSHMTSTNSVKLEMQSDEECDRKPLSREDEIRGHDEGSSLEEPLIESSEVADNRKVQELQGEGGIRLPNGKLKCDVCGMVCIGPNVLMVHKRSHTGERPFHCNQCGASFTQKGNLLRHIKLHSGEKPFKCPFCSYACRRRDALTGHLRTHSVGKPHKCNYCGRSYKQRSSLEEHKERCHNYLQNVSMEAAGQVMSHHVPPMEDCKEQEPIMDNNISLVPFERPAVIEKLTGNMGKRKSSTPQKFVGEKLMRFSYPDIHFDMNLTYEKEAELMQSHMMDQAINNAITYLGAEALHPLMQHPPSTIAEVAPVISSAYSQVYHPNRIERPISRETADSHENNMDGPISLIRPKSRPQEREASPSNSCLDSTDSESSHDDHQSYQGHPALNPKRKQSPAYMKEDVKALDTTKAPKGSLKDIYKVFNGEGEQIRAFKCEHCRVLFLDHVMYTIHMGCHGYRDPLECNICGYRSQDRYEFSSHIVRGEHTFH
Sequence (Q96SW2 whole entry, further chain): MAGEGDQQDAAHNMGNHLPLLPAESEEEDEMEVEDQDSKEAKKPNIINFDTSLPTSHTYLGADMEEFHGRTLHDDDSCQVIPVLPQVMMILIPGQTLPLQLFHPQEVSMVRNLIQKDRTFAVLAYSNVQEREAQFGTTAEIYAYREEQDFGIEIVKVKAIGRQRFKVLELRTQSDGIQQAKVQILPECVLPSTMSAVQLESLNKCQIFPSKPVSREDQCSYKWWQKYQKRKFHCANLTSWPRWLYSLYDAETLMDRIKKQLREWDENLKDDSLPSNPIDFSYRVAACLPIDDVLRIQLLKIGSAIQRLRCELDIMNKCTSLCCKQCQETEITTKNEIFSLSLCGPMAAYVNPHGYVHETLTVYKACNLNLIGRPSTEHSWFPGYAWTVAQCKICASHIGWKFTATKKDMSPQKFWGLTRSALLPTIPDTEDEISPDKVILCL
Sequence (Q16531 whole entry partner): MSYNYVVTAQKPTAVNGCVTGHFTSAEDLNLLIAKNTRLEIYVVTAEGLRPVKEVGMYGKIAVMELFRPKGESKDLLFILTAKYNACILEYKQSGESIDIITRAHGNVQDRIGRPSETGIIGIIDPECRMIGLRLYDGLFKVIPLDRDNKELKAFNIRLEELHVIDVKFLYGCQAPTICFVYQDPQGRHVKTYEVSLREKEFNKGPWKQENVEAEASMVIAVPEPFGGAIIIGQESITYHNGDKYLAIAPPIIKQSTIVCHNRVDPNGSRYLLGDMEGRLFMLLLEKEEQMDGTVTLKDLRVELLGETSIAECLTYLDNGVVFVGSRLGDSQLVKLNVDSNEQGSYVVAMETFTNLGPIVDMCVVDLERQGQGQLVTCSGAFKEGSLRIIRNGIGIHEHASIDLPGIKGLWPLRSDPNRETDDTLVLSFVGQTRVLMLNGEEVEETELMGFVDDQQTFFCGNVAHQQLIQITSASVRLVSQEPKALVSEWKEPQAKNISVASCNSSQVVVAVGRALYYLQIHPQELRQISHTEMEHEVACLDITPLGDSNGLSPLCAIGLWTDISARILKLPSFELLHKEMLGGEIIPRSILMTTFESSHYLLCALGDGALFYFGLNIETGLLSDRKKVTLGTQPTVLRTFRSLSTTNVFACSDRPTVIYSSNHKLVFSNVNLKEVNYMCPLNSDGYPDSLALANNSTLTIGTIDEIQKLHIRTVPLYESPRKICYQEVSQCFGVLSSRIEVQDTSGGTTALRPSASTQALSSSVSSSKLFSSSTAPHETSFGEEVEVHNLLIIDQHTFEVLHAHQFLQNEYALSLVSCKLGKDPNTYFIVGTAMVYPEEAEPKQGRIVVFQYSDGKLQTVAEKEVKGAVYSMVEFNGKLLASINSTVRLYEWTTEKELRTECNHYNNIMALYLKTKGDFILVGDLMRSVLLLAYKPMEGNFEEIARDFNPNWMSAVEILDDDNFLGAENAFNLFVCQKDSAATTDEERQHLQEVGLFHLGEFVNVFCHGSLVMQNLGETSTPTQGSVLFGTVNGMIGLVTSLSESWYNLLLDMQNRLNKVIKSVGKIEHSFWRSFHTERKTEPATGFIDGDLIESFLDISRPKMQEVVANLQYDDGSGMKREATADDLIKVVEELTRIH
Assay Overview: Helios degradation in Jurkat/Helios/HiBit cells (Nano-Glo luminescence)
Assay type: cell-based
Condition Info: 18 hr, read-out: Helios Jurkat Hibit IC50

See these solved cases before continuing.
Compound | Experimental Target | Measure | Observed
Cc1cc(-c2cc(F)c3c(c2)CN(C2CCC(=O)NC2=O)C3=O)nc(N)c1C (centres unmarked) | Helios (Homo sapiens, UniProt Q9UKS7) | DC50 | 0.012 µM
O=C1CCC(N2Cc3cc(C4CCN(Cc5ccc6c(c5)CCC6)CC4)c(F)cc3C2=O)C(=O)N1 (centres unmarked) | Helios (Homo sapiens, UniProt Q9UKS7) | DC50 | ≥ 10 µM
O=C1CCC(N2Cc3c(cc(F)c(C4(O)CCN(Cc5ccc6ncsc6c5)CC4)c3F)C2=O)C(=O)N1 (centres unmarked) | Helios (Homo sapiens, UniProt Q9UKS7) | DC50 | ≥ 10 µM

Prompt: Look up DC50 for this compound: Cc1cc(CN2CCC(c3c(F)cc4c(c3F)CN(C3CCC(=O)NC3=O)C4=O)CC2)on1 (centres unmarked)
Response: ≥ 10 µM

Prompt: Another compound to check: O=C1CCC(N2Cc3c(cc(F)c(C4CCN(CCCOc5ccccc5)CC4)c3F)C2=O)C(=O)N1 (centres unmarked)
Response: ≥ 10 µM

Prompt: Another compound to check: O=C1CCC(N2Cc3cc(C4CCN(Cc5ccc6[nH]ccc6c5)CC4)c(F)cc3C2=O)C(=O)N1 (centres unmarked)
Response: ≥ 10 µM

Prompt: Another compound to check: CN(C)CCCOc1ccc(CN2CCC(c3c(F)cc4c(c3F)CN(C3CCC(=O)NC3=O)C4=O)CC2)cc1 (centres unmarked)
Response: ≥ 10 µM

Prompt: Another compound to check: O=C1CCC(N2Cc3c(cc(F)c(C4CCN(Cc5ccc6ncsc6c5)CC4)c3F)C2=O)C(=O)N1 (centres unmarked)
Response: ≥ 10 µM

* * *

Experimental Target: IKZF1 ZNF2_ZNF3 Q1F degron-tagged CD19 CAR (Homo sapiens, UniProt Q13422, Q146F)
Construct: ZNF2_ZNF3 Q1F degron (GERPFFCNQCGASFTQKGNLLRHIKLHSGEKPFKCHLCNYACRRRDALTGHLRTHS); fused on or other part: anti-CD19 scFv, CD28 transmembrane domain, 4-1BB costimulatory domain, CD3 zeta signaling domain (the CAR that carries the degron), and Nluc
Assay Overview: Degradation of Q1F degron-tagged CD19 CAR in Jurkat cells (flow cytometry of CAR levels)
Type: cell-based
Condition Info: Jurkat cells expressing CD19 CAR tagged with IKZF1 ZNF2_ZNF3 Q1F; 18 hours at 37° C.; CAR levels normalized to untreated cells; read-out: Q1F Jurkat IC50
Measure: DC50 (nM)
Field format: number, assumed nM, no unit text.

See these solved cases before continuing.
Compound | Measure | Readout Units | Observed
O=C1CCC(N2Cc3c(cc(F)c(C4CCN(Cc5ccc6[nH]ccc6c5)CC4)c3F)C2=O)C(=O)N1 (stereo not shown) [Compound 61] | DC50 | nM | 0.204
O=C1CCC(N2Cc3c(cc(F)c(C4(O)CCN(Cc5cc(C(F)(F)F)cc(C6CC6)n5)CC4)c3F)C2=O)C(=O)N1 (stereo not shown) [Compound 17] | DC50 | nM | 28.9
CS(=O)(=O)c1ccc(CN2CCC(c3cc4c(cc3F)C(=O)N(C3CCC(=O)NC3=O)C4)CC2)cc1 (stereo not shown) [Compound 90] | DC50 | nM | 4.68

# evaluate next
Prompt: Please state recorded DC50 (tested on IKZF1 ZNF2_ZNF3 Q1F degron-tagged CD19 CAR (Homo sapiens, UniProt Q13422, Q146F)) of O=C1CCC(N2Cc3c(cc(F)c(C4CCN(Cc5cccnc5)CC4)c3F)C2=O)C(=O)N1 (stereo not shown) [Compound 107]
Response: 2.1

* * *

Experimental Target: IKZF1 ZNF2_ZNF3 Q1F degron-tagged CD19 CAR (Homo sapiens, UniProt Q13422, Q146F)
Construct: ZNF2_ZNF3 Q1F degron (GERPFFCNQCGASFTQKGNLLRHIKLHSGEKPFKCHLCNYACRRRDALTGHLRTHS); fused on or other part: anti-CD19 scFv, CD28 transmembrane domain, 4-1BB costimulatory domain, CD3 zeta signaling domain (the CAR that carries the degron), and Nluc
Assay Overview: Degradation of Q1F degron-tagged CD19 CAR in Jurkat cells (flow cytometry of CAR levels)
Format: cell-based
Condition Info: Jurkat cells expressing CD19 CAR tagged with IKZF1 ZNF2_ZNF3 Q1F; 18 hours at 37° C.; CAR levels normalized to untreated cells; read-out: Q1F Jurkat IC50
Measure: DC50 (nM)
Field format: number, assumed nM, no unit text.

See these solved cases before continuing.
Molecule | Experimental Target | Observed
CCCCN1CCC(c2c(F)cc3c(c2F)CN(C2CCC(=O)NC2=O)C3=O)CC1 (stereo not shown) [Compound 115] | IKZF1 ZNF2_ZNF3 Q1F degron-tagged CD19 CAR (Homo sapiens, UniProt Q13422, Q146F) | 6.66
O=C1CCC(N2Cc3c(cc(F)c(C4CCN(Cc5ccnn5-c5ccccc5)CC4)c3F)C2=O)C(=O)N1 (stereo not shown) [Compound 9] | IKZF1 ZNF2_ZNF3 Q1F degron-tagged CD19 CAR (Homo sapiens, UniProt Q13422, Q146F) | 2.74
O=C1CCC(N2Cc3c(cc(F)c(C4CCN(C5CCCCC5)CC4)c3F)C2=O)C(=O)N1 (stereo not shown) [Compound 97] | IKZF1 ZNF2_ZNF3 Q1F degron-tagged CD19 CAR (Homo sapiens, UniProt Q13422, Q146F) | 3.88

# evaluate next
Prompt: Look up DC50 for this molecule: O=C1CCC(N2Cc3c(cc(F)c(C4CCN(Cc5ccc(-c6ccccc6)o5)CC4)c3F)C2=O)C(=O)N1 (stereo not shown) [Compound 5]
Response: 5.7

src = patent US20240327381A1
